- Tested on: MDA-MB-435 melanoma
- Assay overview: NCI-60 one-dose screen, 48 h
- Measurement parameters: 10 µM unless noted
This is part of a sample that, as a whole, favours compounds with a hit. Of some 83,000 tested, about 20% had one in any assay. The source made the active and inactive calls. Rule for the calls: active = growth percent below 10; inactive = the rest.
Your reply should match one of these outcome classes. true for active, false for inactive

- Compound: "C1CCC(N2CN3c4nonc4N4CN(C5CCCCC5)CN5c6nonc6N(C2)C3C45)CC1 (stereo not drawn)"
  Assigned class: "false"
- Compound: "O=c1oc2c(cnc3ccccc32)cc1-c1cccc(Cl)c1"
  Assigned class: "false"
- Compound: "CC(C)=CC(=O)N[C@H]1CC[C@]2(C)C3CC[C@]4(C)C(C(C)N(C)C)=CCC4C3CCC2[C@H]1O (stereo partly drawn)"
  Assigned class: "true"
- Compound: "CCOC(=O)C1=C(CC(O)c2ccc(OC)cc2OC)NC(=O)NC1c1ccccc1 (stereo not drawn)"
  Assigned class: "false"
- Compound: "CSc1ccc2c3c(n(CCCn4ccnc4)c(=O)c2c1)-c1ccccc1C3=O"
  Assigned class: "false"

Task: Any idea what this test logged for "c1ccc(-c2nc3ccccc3[nH]2)c(OCCCCCOc2ccccc2-c2nc3ccccc3[nH]2)c1" ?
Output: false

Task: Tell me the recorded outcome of this test for "C/C(=N\Nc1ccccc1)c1ccc(NC2=CC(=O)c3ccccc3C2=O)cc1" .
Output: true

Source listed as PubChem BioAssay (NCI).
